Values were extracted from the supplement of paper PMC4858399.

Tested on: Caenorhabditis elegans N2
Test: mean nematode size ln(EXT) after 48 h, plate-adjusted (DMSO control set to 6) (ln(EXT), control-adjusted); higher = larger nematodes / less growth inhibition
Settings: 200 µM; exposure time 48 h
QUANTITY NAME: mean nematode size ln(EXT) (ln)

COMPOUND	ENDPOINT RESULT
c1ccc2c(c1)Cc1ccccc1-2 [Diphenylenemethane]	3.5
CCCC(=O)OCC [Ethyl butyrate]	5.82
CCSC(=O)N(CC)C1CCCCC1 [Cycloate]	5.06
Oc1cccc2cccnc12 [8-Hydroxyquinoline]	5.56
COc1ccccc1N [2-Anisidine]	5.78
CC(C)N1C(=O)N(c2ccccc2)CS/C1=N\C(C)(C)C [Buprofezin]	3.51
Cc1cccc(Nc2cc(Cl)nc(SCC(=O)O)n2)c1C [Pirinixic acid]	5.93
CC1(C(=O)Nc2ccc(O)c(Cl)c2Cl)CCCCC1 [Fenhexamid]	4.71
Cc1nccn1-c1ccc(Sc2cccc(C3(C(N)=O)CCOCC3)c2)cc1	5.48
COc1cccc([C@H](O)C2CCN(CCc3ccc(F)cc3)CC2)c1OC [Volinanserin]	5.78
CCOP(=S)(OCC)SCCSCC [Disulfoton]	5.04

----------
System: Caenorhabditis elegans N2
Test: mean nematode size ln(EXT) after 48 h, plate-adjusted (DMSO control set to 6) (ln(EXT), control-adjusted); higher = larger nematodes / less growth inhibition
Conditions: 0.5 µM; exposure time 48 h
Reported values of mean nematode size ln(EXT) (ln) for individual entries
QUANTITY NAME: mean nematode size ln(EXT) (ln)

SMILES REPR	ENDPOINT RESULT
Nc1cc2c3c(c1)C(c1ccccc1)=N[C@@H](NC(=O)c1cccnc1)C(=O)N3CC2	5.78
CCCSP(=O)(OCC)SCCC	5.83
CNC(=O)ON=C(C)SC	5.94
OCC(CO)n1cnc(-c2ccc(F)cc2)c1-c1ccnc(Oc2ccccc2)n1	6.02
O=C(NC(=O)c1c(F)cccc1F)Nc1cc(Cl)c(OC(F)(F)C(F)F)c(Cl)c1	5.94
O=[N+]([O-])c1ccc(Cl)c(Cl)c1	5.95

----------
Test system: Caenorhabditis elegans N2
Assay: mean nematode size ln(EXT) after 48 h, plate-adjusted (DMSO control set to 6) (ln(EXT), control-adjusted); higher = larger nematodes / less growth inhibition
Details: 0.5 µM; exposure time 48 h
Readings of mean nematode size ln(EXT) (ln) for the listed compounds
QUANTITY NAME: mean nematode size ln(EXT) (ln)

COMPOUND	ENDPOINT RESULT
COCc1nnc(-c2ccc[n+]([O-])c2)n1-c1c(Cl)c(Cl)cc2[nH]c(=O)c(=O)[nH]c12	5.89
CC(=O)CC(c1ccccc1)c1c(O)c2ccccc2oc1=O (centres undefined)	5.8
CC(C)(c1ccccc1)c1ccc(O)c(C(C)(C)c2ccccc2)c1	6
C=CC1(C)OC(=O)N(c2cc(Cl)cc(Cl)c2)C1=O (centres undefined)	5.76

----------
Entries annotated with measured AC50 for larval growth inhibition
Test system: Caenorhabditis elegans N2
Experiment: AC50 for larval growth inhibition (Hill fit); higher = less potent
Conditions: exposure time 48 h

COMPOUND	TEST TARGET	VALUE COMPARATOR	AC50 for larval growth inhibition [µM]
CNS(=O)(=O)c1cc(C(=O)N2CCC(CCN3C4CCC3CC(n3c(C)nc5ccccc53)C4)(c3cccc(F)c3)CC2)c(Cl)cc1F (stereo not given)	Caenorhabditis elegans N2	>	200
CN(C)[C@@H]1C(=O)C(C(N)=O)=C(O)[C@@]2(O)C(=O)C3=C(O)c4c(O)cccc4[C@@](C)(O)[C@H]3C[C@@H]12 [Tetracycline]	Caenorhabditis elegans N2	=	103
CCC(C)c1ccc(O)cc1 (stereo not given) [4-(Butan-2-yl)phenol]	Caenorhabditis elegans N2	=	142
CCCCCCCC(=O)OC [Methyl octanoate]	Caenorhabditis elegans N2	>	200
CCC(C)(c1ccc(O)cc1)c1ccc(O)cc1 [Bisphenol B]	Caenorhabditis elegans N2	=	87.1
CCCCCCCCCCCCO [1-Dodecanol]	Caenorhabditis elegans N2	=	20.3
C=CCC1=C(C)C(OC(=O)C2C(C=C(C)C)C2(C)C)CC1=O (stereo not given) [Allethrin]	Caenorhabditis elegans N2	>	200
CNC(=O)ON=C(C)SC [Methomyl]	Caenorhabditis elegans N2	=	91.6
CCCN(CCC)c1c([N+](=O)[O-])cc(C(C)C)cc1[N+](=O)[O-] [Isopropalin]	Caenorhabditis elegans N2	>	200
CC1(C)CC(N=C=O)CC(C)(CN=C=O)C1 (mixture of isomers) [Isophorone diisocyanate, mixture of isomers]	Caenorhabditis elegans N2	>	200
CC(C)(c1ccccc1)c1ccc(O)c(C(C)(C)c2ccccc2)c1 [2,4-Bis(alpha,alpha-dimethylbenzyl)phenol]	Caenorhabditis elegans N2	=	58.7
CCOP(=S)(OCC)Oc1cc(C)nc(C(C)C)n1 [Diazinon]	Caenorhabditis elegans N2	=	70.9
CCCCCCCCCCO [1-Decanol (Decanol)]	Caenorhabditis elegans N2	=	143
CC(C)CCCCCCOC(=O)C1CCCCC1C(=O)OCCCCCCC(C)C (stereo not given)	Caenorhabditis elegans N2	>	200
CC(=O)CC(c1ccccc1)c1c(O)c2ccccc2oc1=O (stereo not given) [Warfarin]	Caenorhabditis elegans N2	>	200
CCOP(=S)(Oc1ccc([N+](=O)[O-])cc1)c1ccccc1 (stereo not given) [O-Ethyl O-(p-nitrophenyl) phenylphosphonothioate]	Caenorhabditis elegans N2	=	6.09
c1ccc(/N=N/c2ccccc2)cc1 [Azobenzene]	Caenorhabditis elegans N2	=	91.6
CCCOc1sc(C(=O)N2CCC(c3cc(CN)ccc3F)CC2)c(C)c1Br	Caenorhabditis elegans N2	=	9.86
O=c1[nH]cc(F)c(=O)[nH]1 [5-Fluorouracil]	Caenorhabditis elegans N2	=	162
Oc1ccc2ccc3cccc4ccc1c2c34 [1-Hydroxypyrene]	Caenorhabditis elegans N2	=	16

----------
Test system: Caenorhabditis elegans N2
Assay: mean nematode size ln(EXT) after 48 h, plate-adjusted (DMSO control set to 6) (ln(EXT), control-adjusted); higher = larger nematodes / less growth inhibition
Conditions: 200 µM; exposure time 48 h
Where a name gives a salt, the structure may show the parent alone.
Listed next: entries and their corresponding mean nematode size ln(EXT) (ln).

COMPOUND	mean nematode size ln(EXT) (ln)
CC[C@H]1CC[C@H](NCc2cc3c(cc2OC)[C@H]2C[C@H]2C(=O)N3C)[C@H](c2ccccc2)N1	5.48
CCCCCCCCCCCCCCCCCC(=O)O [Stearic acid]	5.91
Cc1ccc(O)cc1 [4-Methylphenol]	5.83
Oc1ccc2ccc3cccc4ccc1c2c34 [1-Hydroxypyrene]	3.87
CCOC(=O)c1ccc(C2CCC(NC[C@H](O)COc3ccc(O)c(NS(C)(=O)=O)c3)CC2)cc1 (stereo not given in full)	5.48
CCOS(=O)(=O)OCC [Diethyl sulfate]	5.42
N#CC(CCc1ccc(Cl)cc1)(Cn1cncn1)c1ccccc1 (stereo not given) [Fenbuconazole]	4.39
CCCCNC(=O)n1c(NC(=O)OC)nc2ccccc21 [Benomyl]	4.35
NS(=O)(=O)c1cc2c(cc1Cl)NCNS2(=O)=O [Hydrochlorothiazide]	5.83
COc1ccc2sc(C(=O)Nc3nnn[nH]3)c(OC(C)C)c2c1	6.09

----------
Tested on: Caenorhabditis elegans N2
Assay: mean nematode size ln(EXT) after 48 h, plate-adjusted (DMSO control set to 6) (ln(EXT), control-adjusted); higher = larger nematodes / less growth inhibition
Settings: 100 µM; exposure time 48 h
This listing pairs compounds with measured mean nematode size ln(EXT) (ln).
QUANTITY NAME: mean nematode size ln(EXT) (ln)

COMPOUND	TEST TARGET	QUANTITY NAME	ENDPOINT RESULT
CS(=O)(=O)c1cc(C(F)(F)F)ccc1C(=O)c1cnoc1C1CC1 [Isoxaflutole]	Caenorhabditis elegans N2	mean nematode size ln(EXT) (ln)	6.15
O=C(O)C1=NN(c2ccc(S(=O)(=O)O)cc2)C(=O)C1N=Nc1ccc(S(=O)(=O)O)cc1 (stereo not given) [Tartrazine]	Caenorhabditis elegans N2	mean nematode size ln(EXT) (ln)	5.85
COc1cc(-c2nc(NC(=O)c3cc4cc(C)cc(C)c4n3CC(=O)O)sc2CCC2CCCCC2)c(OC)cc1Cl	Caenorhabditis elegans N2	mean nematode size ln(EXT) (ln)	5.83
O=C(O)[C@@H]1[C@H](C(=O)O)[C@H]2CC[C@@H]1O2 [Endothal]	Caenorhabditis elegans N2	mean nematode size ln(EXT) (ln)	5.71
CCOP(=S)(OCC)OC(Cl)C(Cl)(Cl)Cl (stereo not given) [Chlorethoxyfos]	Caenorhabditis elegans N2	mean nematode size ln(EXT) (ln)	5.09

----------
Tested on: Caenorhabditis elegans N2
Assay: mean nematode size ln(EXT) after 48 h, plate-adjusted (DMSO control set to 6) (ln(EXT), control-adjusted); higher = larger nematodes / less growth inhibition
Conditions: 100 µM; exposure time 48 h
QUANTITY NAME: mean nematode size ln(EXT) (ln)

COMPOUND	ENDPOINT RESULT
Cc1ccccc1[N+](=O)[O-]	5.76
CCCCOC(=O)C(C)Oc1ccc(Oc2ccc(C(F)(F)F)cn2)cc1 (stereo unspecified)	5.5
Cl[C@H]1[C@H](Cl)[C@@H](Cl)[C@@H](Cl)[C@H](Cl)[C@H]1Cl	5.2
CC[C@H](NC(=O)c1cc(F)ccc1NS(=O)(=O)c1cccc2cccnc12)c1ccccc1	4.28
CCCCCCCCO	5.95
Oc1cc2ccccc2c2ccccc12	4.71
